- subject-of-test: human recombinant PDE4B1 enzyme (Homo sapiens (Human))
- assay-summary: Inhibition of PDE4B1 activity by cAMP HTRF assay
- assay-conditions: human recombinant PDE4B1, cAMP 40 nM, pH 7.4
- Description: Determination of the inhibition of the compounds on PDE4B1 activity by using cAMP HTRF® assay The inhibitory effect of the compounds on human PDE4B1 enzyme activity was determined by quantifying the 5′-adenosine monophosphate (5′-AMP) formed from 3′,5′-cyclic adenosine monophosphate (cAMP). […]
Quick list: pIC50 per entry.
Friendly reminder that pIC50 comes from taking -log10 of the concentration in mol/L.

compound | pIC50
COc1ccc(/C(=C/n2c(C)cc(=O)cc2C)C(=O)N(C)C)cc1OCC1CC1 | 6.74

-- ask Tell me the measured pIC50 of Cc1cc(=O)cc(C)n1/C=C/c1ccc(OC(F)F)c(O[C@H]2CCS(=O)(=O)C2)c1 , please.
-- reply 7.23

-- ask Tell me the measured pIC50 of COc1ccc(/C(Cn2c(C)cc(=O)cc2C)=N/OCS(C)(=O)=O)cc1OCC1CC1 , please.
-- reply 7.52

-- ask Tell me the measured pIC50 of COc1ccc(/C=C/n2c(C)cc(=O)cc2C)cc1O[C@@H]1CC[S+]([O-])C1 (single isomer, unassigned) [Example 86-2] , please.
-- reply 7.09

-- ask Tell me the measured pIC50 of CCCCCCOc1cc(C(=O)Cn2c(C)cc(=O)cc2C)ccc1OC , please.
-- reply 8.35

-- ask Tell me the measured pIC50 of Cc1cc(=O)cc(C)n1/C=C/c1ccc(OC(F)F)c(O[C@@H]2CC[S+]([O-])C2)c1 (single isomer, unassigned) [Example 101-1] , please.
-- reply 7.00

-- ask Tell me the measured pIC50 of COc1ccc(/C=C/n2c(C)cc(=O)cc2C)cc1OC1CCC1 , please.
-- reply 8.21

-- ask Tell me the measured pIC50 of COc1ccc(/C=C/n2ccc(=O)cc2)cc1OCC1CC1 , please.
-- reply 6.74

====

Quick list: IC50 per entry.
- subject-of-test: human recombinant PDE4B1 enzyme (Homo sapiens (Human))
- assay-summary: Inhibition of PDE4B1 activity by cAMP HTRF assay
- assay-conditions: human recombinant PDE4B1, cAMP 40 nM, pH 7.4
Your answer should be a plain number; it is taken to be in nM.

Guide cases for IC50, answers given:
chemical-string | measure-unit | IC50
CC#CCOc1cc(C(=O)Cn2c(C)cc(=O)cc2C)ccc1OC | nM | 93
COc1ccc(C(=O)Cn2c(C)cc(=O)cc2C)cc1OC1COC1 | nM | 116

Please find the next molecule below.
-- ask Tell me the measured IC50 of CCCCCOc1cc(C(=O)Cn2c(C)cc(=O)cc2C)ccc1OC , please.
-- reply 16

====

- subject-of-test: human recombinant PDE4B1 enzyme (Homo sapiens (Human), UniProt Q07343)
- Sequence (Q07343 whole entry): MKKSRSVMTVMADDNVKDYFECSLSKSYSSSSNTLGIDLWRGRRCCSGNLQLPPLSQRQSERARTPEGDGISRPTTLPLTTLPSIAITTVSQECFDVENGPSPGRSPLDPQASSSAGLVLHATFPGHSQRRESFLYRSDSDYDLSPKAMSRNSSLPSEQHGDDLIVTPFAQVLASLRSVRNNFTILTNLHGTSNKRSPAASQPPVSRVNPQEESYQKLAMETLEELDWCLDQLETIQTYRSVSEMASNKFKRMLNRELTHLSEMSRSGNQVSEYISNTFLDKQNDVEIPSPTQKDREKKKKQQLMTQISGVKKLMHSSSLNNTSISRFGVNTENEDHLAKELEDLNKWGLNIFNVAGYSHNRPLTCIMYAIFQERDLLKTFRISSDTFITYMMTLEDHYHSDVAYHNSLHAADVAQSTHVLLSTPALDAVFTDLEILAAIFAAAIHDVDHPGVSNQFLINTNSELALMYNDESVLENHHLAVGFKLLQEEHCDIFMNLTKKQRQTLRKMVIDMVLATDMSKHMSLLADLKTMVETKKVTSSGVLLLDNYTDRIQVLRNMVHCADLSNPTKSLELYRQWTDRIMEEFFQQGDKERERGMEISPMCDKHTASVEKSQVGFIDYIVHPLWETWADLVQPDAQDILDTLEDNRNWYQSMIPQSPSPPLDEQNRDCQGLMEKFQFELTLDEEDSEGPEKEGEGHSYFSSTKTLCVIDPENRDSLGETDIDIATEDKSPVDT
- assay-summary: Inhibition of PDE4B1 activity by cAMP HTRF assay
- assay-conditions: human recombinant PDE4B1, cAMP 40 nM, pH 7.4
pIC50: −log10 of the molar value.
Returns one of rule met or rule not met; rule met when pIC50 is >= 7.

compound | discrete-label
COc1ccc(/C=C/n2c(C)cc(=O)cc2C)cc1OC1CC1 | rule met
COc1ccc(/C(Cn2c(C)cc(=O)cc2C)=N/OCSC)cc1OCC1CC1 | rule met
COc1ccc(C(C#N)=Cn2c(C)cc(=O)cc2C)cc1OCC1CC1 (stereo in doubt) | rule met
COc1ccc(/C=C(\C(N)=O)n2c(C)cc(=O)cc2C)cc1OCC1CC1 | rule not met
CSCCOc1cc(/C=C/n2c(C)cc(=O)cc2C)ccc1OC(F)F | rule met

-- ask Form field: pIC50 at least 7? Entry: COc1ccc(/C=C/n2ccc(=O)cc2C)cc1OCC1CC1
-- reply rule met

-- ask Form field: pIC50 at least 7? Entry: CCCCOc1cc(C(=O)Cn2c(C)cc(=O)cc2C)ccc1OC
-- reply rule met

-- ask Form field: pIC50 at least 7? Entry: CC#CCOc1cc(/C=C/n2c(C)cc(=O)cc2C)ccc1OC
-- reply rule not met

-- ask Form field: pIC50 at least 7? Entry: COc1ccc(C(=O)Cn2c(C)cc(=O)cc2C)cc1OC
-- reply rule met

====

- subject-of-test: human recombinant PDE4B1 enzyme (Homo sapiens (Human))
- assay-summary: Inhibition of PDE4B1 activity by cAMP HTRF assay
- assay-conditions: human recombinant PDE4B1, cAMP 40 nM, pH 7.4
- Procedure: Determination of the inhibition of the compounds on PDE4B1 activity by using cAMP HTRF® assay The inhibitory effect of the compounds on human PDE4B1 enzyme activity was determined by quantifying the 5′-adenosine monophosphate (5′-AMP) formed from 3′,5′-cyclic adenosine monophosphate (cAMP). […]
assay-metric: pIC50
Friendly reminder that pIC50 comes from taking -log10 of the concentration in mol/L.

molecule | assay-metric | assay-result
COc1ccc(/C(Cn2c(C)cc(=O)cc2C)=N\O)cc1OCC1CC1 | pIC50 | 7.15
COc1ccc(/C=C/n2c(C)cc(=O)cc2C)cc1OCS(C)(=O)=O | pIC50 | 6.98

Please find the next molecule below.
-- ask Tell me the measured pIC50 of Cc1cc(=O)cc(C)n1/C=C/c1ccc(OC(F)F)c(OC[S+](C)[O-])c1 (stereo not drawn) , please.
-- reply 7.12
